# Assay System: T1, wild type human CD47 (Acro Biosystems, cat. no. CD7-H5227) (human, UniProt Q08722 19-139)
# T1 construct: Bought protein used as SPR analyte; also called Human CD47 wt; wild-type CD47
# T1 sequence (Q08722 19-139 limits assumed): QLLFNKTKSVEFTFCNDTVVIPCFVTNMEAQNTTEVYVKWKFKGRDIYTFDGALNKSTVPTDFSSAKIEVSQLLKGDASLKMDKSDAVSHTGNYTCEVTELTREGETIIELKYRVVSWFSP
# Method Notes: SPR, IgG captured, CD47 in flow; exp 1;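 also: biacore T200 SPR using IgG from supernatants of transfected HEK293 cells, rate constants fitted to association and dissociation curves, Kd derived from koff over kon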
Quantity: koff (s⁻¹)
Only the number, expressed in s⁻¹, is required.

// returns reported koff for input 108VH5.M6 / 108VL1.M5 (antibody, human IgG4 S228P, kappa, V domains shown, Full-length IgG4 (S228P), kappa; also called VH5.M6 VL1.M5) VH: EVQLVQSGAEVKKPGASVKVSCKASGYTFTHHYMHWVRQAPGQGLEWMGMIDASDSETRLSQKFKDRVTMTRDTSTSTVYMELSSLRSEDTAVYYCARLGRYYFDYWGQGTLVTVSS VL: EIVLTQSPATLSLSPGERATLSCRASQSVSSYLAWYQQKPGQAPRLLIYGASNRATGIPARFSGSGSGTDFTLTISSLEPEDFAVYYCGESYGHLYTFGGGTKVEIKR
0.0039

// returns reported koff for input 108VH5.M8 / 108VL1.M5 (antibody, human IgG4 S228P, kappa, V domains shown, Full-length IgG4 (S228P), kappa; also called VH5.M8 VL1.M5) VH: EVQLVQSGAEVKKPGASVKVSCKASGYSFTHHWIHWVRQAPGQGLEWMGMIDASDSETRYAQKFKDRVTMTRDTSTSTVYMELSSLRSEDTAVYYCARLGRYYFDYWGQGTLVTVSS VL: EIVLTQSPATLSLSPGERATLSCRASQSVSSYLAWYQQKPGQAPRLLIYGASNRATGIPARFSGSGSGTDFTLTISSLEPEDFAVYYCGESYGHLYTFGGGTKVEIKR
0.0022
